Below, each entry is listed alongside its reported IC50.
ASSAYED_SYSTEM: NLRP3 (Homo sapiens, UniProt Q96P20)
Sequence (Q96P20 whole entry): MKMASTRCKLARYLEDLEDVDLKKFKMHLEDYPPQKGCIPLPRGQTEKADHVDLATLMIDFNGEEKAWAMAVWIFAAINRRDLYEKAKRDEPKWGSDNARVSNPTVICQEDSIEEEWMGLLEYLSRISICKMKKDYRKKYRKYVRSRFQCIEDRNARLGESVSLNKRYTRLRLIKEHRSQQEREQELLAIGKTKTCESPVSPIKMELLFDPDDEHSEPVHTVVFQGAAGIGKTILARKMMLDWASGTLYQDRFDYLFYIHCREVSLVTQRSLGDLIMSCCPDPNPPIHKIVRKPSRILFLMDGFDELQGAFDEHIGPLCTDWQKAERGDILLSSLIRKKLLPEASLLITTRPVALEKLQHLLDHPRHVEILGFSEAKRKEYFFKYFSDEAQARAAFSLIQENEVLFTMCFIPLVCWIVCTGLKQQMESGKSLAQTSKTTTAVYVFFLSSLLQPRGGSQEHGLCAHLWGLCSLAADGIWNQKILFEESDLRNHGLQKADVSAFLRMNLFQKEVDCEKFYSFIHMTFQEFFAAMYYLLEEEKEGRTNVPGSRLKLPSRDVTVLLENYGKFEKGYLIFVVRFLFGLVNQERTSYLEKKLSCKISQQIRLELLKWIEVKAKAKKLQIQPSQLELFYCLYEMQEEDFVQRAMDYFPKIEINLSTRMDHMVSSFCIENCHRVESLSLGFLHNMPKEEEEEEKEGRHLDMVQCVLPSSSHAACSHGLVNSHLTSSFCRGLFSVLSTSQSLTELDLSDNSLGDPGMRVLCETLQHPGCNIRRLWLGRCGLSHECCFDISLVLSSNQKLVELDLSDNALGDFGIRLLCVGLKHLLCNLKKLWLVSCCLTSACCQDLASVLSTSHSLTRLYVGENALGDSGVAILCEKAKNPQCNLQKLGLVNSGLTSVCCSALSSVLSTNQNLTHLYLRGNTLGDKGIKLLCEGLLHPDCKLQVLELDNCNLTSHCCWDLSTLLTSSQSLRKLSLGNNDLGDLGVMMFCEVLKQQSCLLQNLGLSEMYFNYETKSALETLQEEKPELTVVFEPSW
RUN_DESCRIPTION: IL-1β Secretion Assay (NLRP3-dependent IL1β secretion in THP1 cells)
REPORTED_CONDITIONS: PMA-differentiated THP-1 cells; compounds incubated 20 h; 2.5 μM Nigericin 3 h; HTRF IL-1β readout; read-out: IC50 IL-1β Inhibition

Some entries whose results are on file:
COc1cccc(C(C)Nc2nnc(-c3ccc(OC)cc3C(F)(F)F)c3c(F)ccn23)c1 (stereo not shown) : 100 to 300 nM
CCN1CCC[C@@H](Nc2nnc(-c3ccc(C(F)(F)F)cc3OC(F)(F)F)c3cccn23)C1 : < 1 nM
OCCN1CCC[C@@H](Nc2nnc(-c3ccc(C4CC4)cc3OC(F)F)c3cncn23)C1 : 1 to 10 nM
CCN1CCC[C@@H](Nc2nnc(-c3ccc(C)cc3S(C)(=O)=O)c3cc(C)nn23)C1 : 10 to 100 nM
CCN1CC[C@@H](O)[C@@H](Nc2nnc(-c3ccc(C(F)(F)F)cc3C(F)(F)F)c3cc(C)cn23)C1 : 1 to 10 nM

Query string: What measured IC50 goes with CC(Nc1nnc(-c2ccc(C3CC3)cc2CC(F)(F)F)c2cncn12)c1cccc(O)c1 (stereo not shown) ?
Result string: 1 to 10 nM

Query string: What measured IC50 goes with C[C@]1(O)C[C@@H](Nc2nnc(-c3ccc(Cl)cc3OC(F)(F)F)c3cncn23)C1 ?
Result string: 1 to 10 nM

Query string: What measured IC50 goes with COc1ccc(-c2nnc(N[C@H]3C[C@@](C)(O)C3)n3cc(C)cc23)c(OC(F)(F)F)c1 ?
Result string: 1 to 10 nM

---

ASSAYED_SYSTEM: UniProtKB Q96P20
RUN_DESCRIPTION: IL-1β Secretion Assay (NLRP3-dependent IL1β secretion in THP1 cells)
REPORTED_CONDITIONS: PMA-differentiated THP-1 cells; compounds incubated 20 h; 2.5 μM Nigericin 3 h; HTRF IL-1β readout; read-out: IC50 IL-1β Inhibition
MEASURE_NAME: IC50

COc1ccc(-c2nnc(N[C@@H]3CCCN(C)C3)n3cncc23)c(OCC(F)(F)F)c1 : 0.001 to 0.01 µM
COc1ccc(-c2nnc(NC3CCCN(C)C3=O)n3cncc23)c(CC(F)(F)F)c1 (centres unmarked) : 0.01 to 0.1 µM
COc1ccc(-c2nnc(N[C@H]3C[C@@](C)(O)C3)n3cccc23)c(Cl)c1 : 0.01 to 0.1 µM

Moving on to the next compound.
Query string: What measured IC50 goes with C[C@]1(O)C[C@@H](Nc2nnc(-c3ccc(OC(F)F)cc3OC(F)(F)F)c3cccn23)C1 ?
Result string: 0.001 to 0.01 µM

---

Below, each entry is listed alongside its reported pIC50.
ASSAYED_SYSTEM: NLRP3 (Homo sapiens, UniProt Q96P20)
RUN_DESCRIPTION: IL-1β Secretion Assay (NLRP3-dependent IL1β secretion in THP1 cells)
REPORTED_CONDITIONS: PMA-differentiated THP-1 cells; compounds incubated 20 h; 2.5 μM Nigericin 3 h; HTRF IL-1β readout; read-out: IC50 IL-1β Inhibition
pIC50: −log10 of the molar value.

O[C@H]1CCCC[C@@H]1Nc1nnc(-c2ccc(C(F)(F)F)cc2OC(F)(F)F)c2cncn12 : 7.00 to 8.00
COc1ccc(-c2nnc(NC3CC(C)(CO)C3)n3cncc23)c(CC(F)(F)F)c1 (centres unmarked) : 7.00 to 8.00
COc1ccc(-c2nnc(NC3CCNC3=O)n3cccc23)c(OC(F)F)c1 (centres unmarked) : 7.00 to 8.00
COc1ccc(-c2nnc(N[C@H]3C[C@@](C)(O)C3)n3nc(C)cc23)c(OC(F)(F)F)c1 : 7.00 to 8.00
COc1ccc(-c2nnc(N[C@@H]3CCCC[C@H]3O)n3cccc23)c(OC(F)F)c1 : 7.00 to 8.00
Cc1ccc(-c2nnc(NC(C)c3cccc(O)c3)n3cccc23)c(OC(F)F)c1 (centres unmarked) : 8.00 to 9.00
CCN1CCC[C@@H](Nc2nnc(-c3ccc(C(F)(F)F)cc3OC(F)(F)F)c3cc(C)nn23)C1 : 8.00 to 9.00

Moving on to the next molecule.
Query string: Which measured pIC50 belongs to COc1ccc(-c2nnc(N[C@@H]3CCCN(C)C3)n3cc(C)cc23)c(OC(F)(F)F)c1 , tested on NLRP3 (Homo sapiens, UniProt Q96P20)?
Result string: > 9.00
